Test: Solubility testing in water by portionwise addition until saturation
Assay type: physicochemical
Settings: water, pH 7, aqueous buffer, 50% dilution with water, adjusted to pH 7, T = 4 weeks
Protocol: The solubility of compounds 2-4 was determined by portionwise addition of the compounds to water until saturation was obtained. Water (10 mL) was added to a 20-mL vial. About 100 mg of Compound 2 was added. […] The solubility of Compounds 2-4 was determined by portionwise addition of the compounds to water until saturation was obtained. After stirring overnight, the suspensions were filtered and analyzed by HPLC. […]
Assign solubility at 4 weeks to each entry below.

Quick note, solubility at 4 weeks for COC(=O)N(C)[C@@H](Cc1ccccc1)C(=O)N[C@@H](Cc1ccc(NS(=O)(=O)[O-])cc1)c1csc(-c2cccs2)n1.[Na+] landed at ~125 mg/mL

For record COC(=O)N[C@@H](Cc1ccccc1)C(=O)N(C)[C@@H](Cc1ccc(NS(=O)(=O)[O-])cc1)c1csc(-c2cccs2)n1.[Na+] the listed solubility at 4 weeks is > 115 mg/mL

Kindly note the recorded solubility at 4 weeks for COC(=O)N(C)[C@@H](Cc1ccccc1)C(=O)N(C)[C@@H](Cc1ccc(NS(=O)(=O)[O-])cc1)c1csc(-c2cccs2)n1.[Na+] , which is 31 mg/mL

---

Experiment: Solubility testing in water by portionwise addition until saturation
Type: physicochemical
Conditions: water, thermodynamic from solid, Before dilution, T = 5 weeks, room temperature
ENDPOINT: solubility at 5 weeks (mg/mL)
Express it in mg/mL; write the number only.

get_value(item= COC(=O)N(C)[C@@H](Cc1ccccc1)C(=O)N[C@@H](Cc1ccc(NS(=O)(=O)[O-])cc1)c1csc(-c2cccs2)n1.[Na+] [Compound 2] , readout=solubility at 5 weeks) returns 49.5
